Each recorded value in this set is attributed to patent US11352401.

# TEST_TARGET: T1, HLA-A*02 (human)
# T1 construct: MHC monomer made peptide-receptive by UV cleavage of a UV-sensitive ligand; also called peptide-receptive MHC class I monomer
# ASSAY_EXPLANATION: UV peptide-exchange ELISA; ++++ = yield >75%
Property: peptide exchange yield; scope: individual binders

// solved cases for peptide exchange yield follow
SLIDMRGIETV [SLIDMRGIETV (SEQ ID NO: 391)] = > 75%
LLLGSIGLLGV [LLLGSIGLLGV (SEQ ID NO: 109)] = > 75%
ALVDTLTGI [ALVDTLTGI (SEQ ID NO: 121)] = > 75%

Lookup: Provide one value: measured peptide exchange yield of AVLTGLVEV [AVLTGLVEV (SEQ ID NO: 113)]
Found: > 75%

Lookup: Provide one value: measured peptide exchange yield of GLDGSLVFL [GLDGSLVFL (SEQ ID NO: 127)]
Found: > 75%

Lookup: Provide one value: measured peptide exchange yield of VLYDKDAVYV [VLYDKDAVYV (SEQ ID NO: 129)]
Found: > 75%

Lookup: Provide one value: measured peptide exchange yield of HLVGGLHTV [HLVGGLHTV (SEQ ID NO: 96)]
Found: > 75%

Lookup: Provide one value: measured peptide exchange yield of TLQEKILQV [TLQEKILQV (SEQ ID NO: 93)]
Found: > 75%

Lookup: Provide one value: measured peptide exchange yield of SLLEQAIAL [SLLEQAIAL (SEQ ID NO: 102)]
Found: > 75%

Lookup: Provide one value: measured peptide exchange yield of MTLPVDAVISV [MTLPVDAVISV (SEQ ID NO: 133)]
Found: > 75%

Lookup: Provide one value: measured peptide exchange yield of YVDINTFRL [YVDINTFRL (SEQ ID NO: 84)]
Found: > 75%

Lookup: Provide one value: measured peptide exchange yield of VLMEENSKL [VLMEENSKL (SEQ ID NO: 116)]
Found: > 75%

Lookup: Provide one value: measured peptide exchange yield of HIMPTVHTV [HIMPTVHTV (SEQ ID NO: 390)]
Found: > 75%

Lookup: Provide one value: measured peptide exchange yield of ILDERQVLL [ILDERQVLL (SEQ ID NO: 114)]
Found: > 75%

Lookup: Provide one value: measured peptide exchange yield of VLALVNSTV [VLALVNSTV (SEQ ID NO: 97)]
Found: > 75%

Lookup: Provide one value: measured peptide exchange yield of VLPDIETLIGV [VLPDIETLIGV (SEQ ID NO: 94)]
Found: > 75%

Lookup: Provide one value: measured peptide exchange yield of SLLTHIPTA [SLLTHIPTA (SEQ ID NO: 105)]
Found: > 75%

Lookup: Provide one value: measured peptide exchange yield of RTADITVTV [RTADITVTV (SEQ ID NO: 119)]
Found: > 75%

Lookup: Provide one value: measured peptide exchange yield of LQSSGLTLLL [LQSSGLTLLL (SEQ ID NO: 98)]
Found: > 75%

Lookup: Provide one value: measured peptide exchange yield of ALSSVLHSI [ALSSVLHSI (SEQ ID NO: 118)]
Found: > 75%

Lookup: Provide one value: measured peptide exchange yield of FLYYPDPVL [FLYYPDPVL (SEQ ID NO: 103)]
Found: > 75%
